- Target Or Test System: Fatty-acid amide hydrolase 1 (Homo sapiens, UniProt O00519)
- Sequence (O00519 whole entry): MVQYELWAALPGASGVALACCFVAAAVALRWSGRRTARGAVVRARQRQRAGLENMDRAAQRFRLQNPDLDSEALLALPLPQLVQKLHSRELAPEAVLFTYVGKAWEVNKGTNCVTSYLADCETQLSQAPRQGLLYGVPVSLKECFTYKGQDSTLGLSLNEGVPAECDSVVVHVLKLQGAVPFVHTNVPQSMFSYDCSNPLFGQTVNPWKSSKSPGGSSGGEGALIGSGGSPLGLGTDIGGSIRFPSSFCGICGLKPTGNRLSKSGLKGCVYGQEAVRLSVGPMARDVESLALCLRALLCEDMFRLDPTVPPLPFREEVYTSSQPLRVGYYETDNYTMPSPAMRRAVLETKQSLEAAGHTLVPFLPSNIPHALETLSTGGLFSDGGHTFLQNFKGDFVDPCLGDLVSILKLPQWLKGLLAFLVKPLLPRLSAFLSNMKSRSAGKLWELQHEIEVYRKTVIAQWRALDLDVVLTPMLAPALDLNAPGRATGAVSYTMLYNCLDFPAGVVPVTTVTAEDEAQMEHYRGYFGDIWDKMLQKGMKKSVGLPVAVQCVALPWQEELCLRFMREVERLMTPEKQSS
- Test Protocol: Inhibition of FAAH

| Smiles Code | Target Or Test System | IC50 |
| --- | --- | --- |
| O=C(N1CCC(Oc2ccc(OCc3cccc(F)c3)cc2)CC1)n1ccnc1 | Fatty-acid amide hydrolase 1 (Homo sapiens, UniProt O00519) | 0.093 nM |
| CN(CCCCCl)C(=O)n1cnc(-c2ccccc2)c1 | Fatty-acid amide hydrolase 1 (Homo sapiens, UniProt O00519) | 78 nM |
| COc1ccc(N2CCN(C(=O)n3nnc4ccc(N5CCCC5)nc43)CC2)cc1 | Fatty-acid amide hydrolase 1 (Homo sapiens, UniProt O00519) | 1 nM |
| O=C(N1CCN(c2cccc(C(F)(F)F)c2)CC1)n1nnc2ccc(-c3ccc(Cl)cc3)nc21 | Fatty-acid amide hydrolase 1 (Homo sapiens, UniProt O00519) | 2 nM |
| Cc1ccc2nc(-c3ccc(NC(=O)C4CCN(S(=O)(=O)c5cccs5)CC4)cc3)sc2c1 | Fatty-acid amide hydrolase 1 (Homo sapiens, UniProt O00519) | 18 nM |

###

Below are pKi values measured for Fatty-acid amide hydrolase 1 (Homo sapiens, UniProt O00519).
pKi: −log10 of the molar value.

| Smiles Code | Target Or Test System | Value Relation Sign | pKi |
| --- | --- | --- | --- |
| CCCCCC(=O)c1nc2ncccc2o1 | Fatty-acid amide hydrolase 1 (Homo sapiens, UniProt O00519) | = | 7.82 |
| CCCCCCCC(=O)c1nc2ncccc2o1 | Fatty-acid amide hydrolase 1 (Homo sapiens, UniProt O00519) | = | 9.16 |
| CCCCCCC(=O)c1nc2ncccc2o1 | Fatty-acid amide hydrolase 1 (Homo sapiens, UniProt O00519) | = | 8.68 |
| O=C(CCCCCCc1ccccc1)c1ncc(-c2cccnn2)o1 | Fatty-acid amide hydrolase 1 (Homo sapiens, UniProt O00519) | = | 8.25 |
| O=C(CCCCCCc1ccccc1)c1ncc(-c2ncccn2)o1 | Fatty-acid amide hydrolase 1 (Homo sapiens, UniProt O00519) | = | 8.34 |
| CCCCCCCC/C=C\CCCCCCC=O | Fatty-acid amide hydrolase 1 (Homo sapiens, UniProt O00519) | = | 7.40 |
| CC(=O)c1nc2ncccc2o1 | Fatty-acid amide hydrolase 1 (Homo sapiens, UniProt O00519) | < | 4.00 |
| CCCCCCCCCCCCCCCC(=O)c1nc2ncccc2o1 | Fatty-acid amide hydrolase 1 (Homo sapiens, UniProt O00519) | = | 8.72 |
